# System: RSK2(Kin.Dom.2-C-terminal)
# Construct: gene RPS6KA3
# condition-notes: concentration: 1 μM, replicates: in singlicate; n = 1;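 further: KINOMEscan kinase panel screen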
property-label: %Inh (%)
Give the value in % but do not write % after it.

*Q* Find the measured %Inh of `CS(=O)(=O)c1ccc(-c2c(-c3ncn[nH]3)sc(N3CCOCC3)c2C#N)cc1` and report it.
*A* 0

*Q* Find the measured %Inh of Cc1c(O)cccc1Nc1ccnc2ccc(C(F)(F)F)cc12.Cl [GW466413] and report it.
*A* 16

*Q* Find the measured %Inh of CCCc1ccc(S(=O)(=O)NC2CCN(c3ccnc(Nc4ccc(F)cc4)n3)C2)cc1 (stereo not drawn) [GSK1379715] and report it.
*A* 20

*Q* Find the measured %Inh of COc1cc2nccc(Nc3ccc(NC(=O)c4ccc(C)cc4)c(O)c3)c2cc1OC.Cl [GW440132] and report it.
*A* 4

*Q* Find the measured %Inh of COc1ccc(Nc2nccc(NCCNC(=O)Nc3ccccc3F)n2)cc1 [GSK1379901] and report it.
*A* 27

*Q* Find the measured %Inh of Cc1ccc(NC(=O)Nc2cc(C(C)(C)C)nn2-c2ccccc2)cc1 [GSK1014915] and report it.
*A* 0

*Q* Find the measured %Inh of C[C@@H]1CCCCN1c1cc(-c2ccc3c(N)n[nH]c3c2)nc(N)n1 [GSK2258759] and report it.
*A* 0

*Q* Find the measured %Inh of O=C(Nc1ccc2c(c1)OCO2)NC1CCN(c2ccnc(Nc3ccc(F)cc3)n2)C1 (stereo not drawn) [GSK1379724] and report it.
*A* 0

*Q* Find the measured %Inh of `O=C(O)COc1ncnc2cc(-c3ccc4[nH]ncc4c3)sc12` and report it.
*A* 0

----------
# Tested on: NEK2
# condition-notes: concentration: 1 μM, replicates: in singlicate; n = 1
So I've got a bunch of compounds here, and I need their %Inh values.
Give the value in % but do not write % after it.

*Q* Find the measured %Inh of `Cc1cc(NCC(c2ccccc2)c2ccccc2)nc(NCc2ccc(C(F)(F)F)cc2)n1` and report it.
*A* 0

*Q* Find the measured %Inh of `COc1ccccc1CNC(=O)c1cc(C(=O)c2ccccc2C)c[nH]1` and report it.
*A* 0

*Q* Find the measured %Inh of `Nc1ncnc2[nH]c(-c3ccccc3)nc12` and report it.
*A* 18

*Q* Find the measured %Inh of `Cc1cc(N2Cc3ccccc3C2)nc(Nc2ccc(S(=O)(=O)N3CCOCC3)cc2)n1.Cl` and report it.
*A* 0

*Q* Find the measured %Inh of COc1cc2ncn(-c3cc(OCC4CCCO4)c(C(N)=O)s3)c2cc1OC (centres unmarked) and report it.
*A* 28

*Q* Find the measured %Inh of `Cc1cc(-c2ccc3c(c2)CC[C@@H](N[C@@H](C)c2ccccc2)C3)cnc1N.Cl` and report it.
*A* 3

*Q* Find the measured %Inh of `Cc1cccc(-c2nc(Nc3cccc(C(N)=O)c3)c3ccccc3n2)n1` and report it.
*A* 0

*Q* Find the measured %Inh of `Cc1cccc(-c2nc(Nc3ccncc3)c3ccccc3n2)n1` and report it.
*A* 0

*Q* Find the measured %Inh of `CCn1c(-c2cccnc2O)nc2cnccc21` and report it.
*A* 0

*Q* Find the measured %Inh of Cc1nnc(-c2ccc3occ(-c4ccc(S(C)=O)cc4)c3c2)[nH]1 (centres unmarked) and report it.
*A* 11

*Q* Find the measured %Inh of COc1ccc(CNC(=O)NC2CCN(c3ccnc(Nc4cc(OC)c(OC)c(OC)c4)n3)C2)cc1 (centres unmarked) and report it.
*A* 0

*Q* Find the measured %Inh of `O=C(Nc1ccccc1)Nc1cccc(Oc2ccc3nccn3n2)c1` and report it.
*A* 0

*Q* Find the measured %Inh of `Cl.O=C(Nc1cccc(-c2nn3ncccc3c2-c2ccnc(Nc3cccnc3)n2)c1)c1c(F)cccc1F` and report it.
*A* 14

*Q* Find the measured %Inh of O=C(Nc1ccc2c(c1)OCO2)NC1CCN(c2ccnc(Nc3ccc(F)cc3)n2)C1 (centres unmarked) and report it.
*A* 0

*Q* Find the measured %Inh of `O=c1cc(N2CCOCC2)nc2n(Cc3cccc(Cl)c3Cl)ccn12` and report it.
*A* 4

*Q* Find the measured %Inh of `Cn1ccc2ncnc(Oc3cccc(C(=O)Nc4ccccc4)c3)c21` and report it.
*A* 0

*Q* Find the measured %Inh of `O=C(Nc1n[nH]c2nc(-c3nccs3)c(Br)cc12)C1CC1` and report it.
*A* 0

*Q* Find the measured %Inh of COc1cccc(NC(=O)NC2CCN(c3ccnc(Nc4ccc(F)cc4)n3)C2)c1 (centres unmarked) and report it.
*A* 1

*Q* Find the measured %Inh of `Cc1c(O)cccc1Nc1ccnc2ccc(C(F)(F)F)cc12.Cl` and report it.
*A* 0

*Q* Find the measured %Inh of `Cc1ccc(-c2cc(-c3c[nH]nc3-c3ccccn3)ccn2)cc1` and report it.
*A* 0

*Q* Find the measured %Inh of `Cc1csc(-c2nc(Nc3ccncc3)c3ccccc3n2)n1` and report it.
*A* 0

*Q* Find the measured %Inh of CC1=C(C(=O)Nc2cc3cn[nH]c3cc2F)C(c2ccc(C(F)(F)F)cc2)CC(=O)N1 (centres unmarked) and report it.
*A* 0

*Q* Find the measured %Inh of `O=S(=O)(c1ccc(-c2ccnc3[nH]ccc23)cc1)N1CCCC1` and report it.
*A* 16

*Q* Find the measured %Inh of `Cl.Oc1ccc(-c2nc(-c3ccccc3)[nH]c2-c2ccncc2)cc1` and report it.
*A* 3

*Q* Find the measured %Inh of `COc1cc2nccc(Nc3ccc(NC(=O)c4ccc(C)cc4)c(O)c3)c2cc1OC.Cl` and report it.
*A* 0

*Q* Find the measured %Inh of `O=C1NC(=O)C(N2CCc3ccccc32)=C1c1ccccc1Cl` and report it.
*A* 1

*Q* Find the measured %Inh of `CS(=O)(=O)c1ccc(-c2c(-c3ncn[nH]3)sc(N3CCOCC3)c2C#N)cc1` and report it.
*A* 0

*Q* Find the measured %Inh of `COc1cc2ncnc(Nc3ccc4nc(-c5ccccc5)[nH]c4c3)c2cc1OC.Cl` and report it.
*A* 0

*Q* Find the measured %Inh of `Cc1cccc(-c2cc(Nc3ccncc3)c3ccccc3n2)n1` and report it.
*A* 0

*Q* Find the measured %Inh of `Clc1cc(Cl)cc(Nc2ccnc(Nc3cc(Cl)cc(Cl)c3)n2)c1` and report it.
*A* 4

*Q* Find the measured %Inh of `Fc1cc(Cl)ccc1Nc1ccnc2cc(-c3ccc(CN4CCCCC4)o3)ccc12` and report it.
*A* 0

*Q* Find the measured %Inh of `COC(=O)c1c(-c2ccccc2)c2cc(C(=O)O)ccc2c(=O)n1Cc1ccccc1` and report it.
*A* 0

*Q* Find the measured %Inh of `Fc1cc(Cl)ccc1Nc1ccnc2cc(I)ccc12` and report it.
*A* 4

*Q* Find the measured %Inh of `Cc1ccccc1-n1cnc2c(N)ncnc21` and report it.
*A* 0

*Q* Find the measured %Inh of `Cc1ccc(NC(=O)Nc2cccc(Cl)c2)cc1-c1ccc(C(=O)Nc2ccncc2)cc1` and report it.
*A* 2

Origin of values: paper PMC5540273
